Assay: Stabilizing effect of accelerated stabilizers (37° C., 14 days) on standard products and quality control products then accelerated at 30° C. for 2 days
Format: physicochemical
Conditions: Low concentration level; 2 days at 30° C. vs Control
Overview of reported Relative deviation % across a group of compounds:
Please respond with the number in % and leave the unit unwritten.

Examples from the recorded data:
[
  {
    "Compound": "CNCC(O)c1ccc(O)c(OC)c1 (centres unmarked)",
    "Obs Value": 2.69
  },
  {
    "Compound": "NCCc1ccc(O)c(O)c1",
    "Obs Value": "−0.29"
  },
  {
    "Compound": "COc1cc(C(O)CN)ccc1O (centres unmarked)",
    "Obs Value": 1.41
  },
  {
    "Compound": "COc1cc(CCN)ccc1O",
    "Obs Value": "−8.93"
  }
]

In the following, a different compound is considered.
Prompt: Which measured Relative deviation % value corresponds to NC[C@H](O)c1ccc(O)c(O)c1 ?
Response: −8.19
